Origin of the recorded values: patent US20250326771A1

# Tested on: Jurkat HIV-luciferase clones
# METHOD NOTES: Jurkat latency reversal assay
# Format: cell-based
# STUDY CONDITIONS: Homo sapiens, 48 h; Jurkat latency reversal assay potency; read-out: Jurkat pEC50 (converted)
# Method: Jurkat HIV-luciferase clones were maintained in RPMI medium 1640 (Gibco by Life Technologies) containing 10% (vol/vol) fetal bovine serum (SAFC/Sigma-Aldrich) and 25 units/mL penicillin, 25 units/mL streptomycin (Gibco by Life Technologies), and were split 1:4 every 3 to 4 days to maintain a cell density of ˜0.3 to 1 million cells/mL. […] Luminescence resulting from the induction of the virally expressed luciferase was measured using an EnVision 2102 Multilabel Plate Reader (Perkin Elmer). […]
METRIC: EC50

The examples below pair each entry with its known result.
MOLECULE	EC50
C[C@@H]1CN(CC(=O)N2CC(C)(C)c3[nH]c(=O)c(Cc4ccc(F)cc4)cc32)[C@@H](CN2CCO[C@@H](COc3cccc(OC[C@H]4CN(C[C@H]5CN[C@H](C)CN5CC(=O)N5CC(C)(C)c6[nH]c(=O)c(Cc7ccc(F)cc7)cc65)CCO4)c3)C2)CN1 [Example 112]	12.6 to 63.1 nM
C[C@@H]1CN(CC(=O)N2CC(C)(C)c3[nH]c(=O)c(Cc4ccc(F)cc4)cc32)[C@@H](CN2CCN(CCCCCCCCCCCCN3CCN(C[C@H]4CN[C@H](C)CN4CC(=O)N4CC(C)(C)c5[nH]c(=O)c(Cc6ccc(F)cc6)cc54)[C@H](C)C3)C[C@H]2C)CN1 [Example 26]	12.6 to 63.1 nM
C[C@@H]1CN(CC(=O)N2CC(C)(C)c3[nH]c(=O)c(Cc4ccc(F)cc4)cc32)[C@@H](CN2CCN(Cc3cn(CC(=O)N4CCN(C[C@H]5CN[C@H](C)CN5CC(=O)N5CC(C)(C)c6[nH]c(=O)c(Cc7ccc(F)cc7)cc65)[C@H](C)C4)nn3)C[C@H]2C)CN1 [Compound 155]	316 to 3310 nM

Q: Look at this molecule and give its reported EC50. C[C@@H]1CN(CC(=O)N2CC(C)(C)c3[nH]c(=O)c(Cc4ccc(F)cc4)cc32)[C@@H](CN2CCN(C(=O)COCCOCCOCC(=O)N3CCN(C[C@H]4CN[C@H](C)CN4CC(=O)N4CC(C)(C)c5[nH]c(=O)c(Cc6ccc(F)cc6)cc54)[C@H](C)C3)C[C@H]2C)CN1 (stereo in doubt) [Example 6]
A: 63.1 to 316 nM

Q: Quick one: C[C@@H]1CN(CC(=O)N2CC(C)(C)c3[nH]c(=O)c(Cc4ccc(F)cc4)cc32)[C@@H](CN2CCN(C(=O)COc3ccc(OCC(=O)N4CCN(C[C@H]5CN[C@H](C)CN5CC(=O)N5CC(C)(C)c6[nH]c(=O)c(Cc7ccc(F)cc7)cc65)[C@H](C)C4)cc3)C[C@H]2C)CN1 [Example 13]
A: 63.1 to 316 nM

Q: Quick one: C[C@@H]1CN(CC(=O)N2CC(C)(C)c3[nH]c(=O)c(Cc4ccc(Cl)cc4C(F)(F)F)cc32)[C@@H](CN2CCO[C@H](C(=O)NCc3ccc(CNC(=O)[C@@H]4CN(C[C@H]5CN[C@H](C)CN5CC(=O)N5CC(C)(C)c6[nH]c(=O)c(Cc7ccc(Cl)cc7C(F)(F)F)cc65)CCO4)cc3)C2)CN1 [Compound 170]
A: 12.6 to 63.1 nM

Q: Quick one: C[C@@H]1CN(CC(=O)N2CC(C)(C)c3[nH]c(=O)c(Cc4ccc(F)cc4)cc32)[C@@H](CN2CCC(CN(C)C(=O)c3ccc(C(=O)N(C)CC4CCN(C[C@H]5CN[C@H](C)CN5CC(=O)N5CC(C)(C)c6[nH]c(=O)c(Cc7ccc(F)cc7)cc65)CC4)cc3)CC2)CN1 [Example 96]
A: 63.1 to 316 nM

Q: Quick one: C[C@@H]1CN(CC(=O)N2CC(C)(C)c3c2cc(Cc2ccc(F)cc2)c(=O)n3C)[C@@H](CN2CCO[C@H](COc3ccc(Cc4ccc(OC[C@@H]5CN(C[C@H]6CN[C@H](C)CN6CC(=O)N6CC(C)(C)c7c6cc(Cc6ccc(F)cc6)c(=O)n7C)CCO5)cc4)cc3)C2)CN1 [Example 115]
A: 63.1 to 316 nM

Q: Quick one: C[C@@H]1CN(CC(=O)N2CC(C)(C)c3ncc(Oc4ccc(F)cc4)cc32)[C@@H](CN2CCO[C@H](COc3cccc(OC[C@@H]4CN(C[C@H]5CN[C@H](C)CN5CC(=O)N5CC(C)(C)c6ncc(Oc7ccc(F)cc7)cc65)CCO4)c3)C2)CN1 [Compound 142]
A: 12.6 to 63.1 nM

Q: Quick one: C[C@@H]1CN(CC(=O)N2CC(C)(C)c3[nH]c(=O)c(Cc4ccc(F)cc4)cc32)[C@@H](CN2CCO[C@H](COc3ccc(F)c(OC[C@@H]4CN(C[C@H]5CN[C@H](C)CN5CC(=O)N5CC(C)(C)c6[nH]c(=O)c(Cc7ccc(F)cc7)cc65)CCO4)c3F)C2)CN1 [Example 74]
A: 0.49 to 12.6 nM

----------
Measured pIC50 by item
# TESTED SYSTEM: cIAP2-BIR2 (Homo sapiens (Human), UniProt Q13489)
# Sequence (Q13489 158-242): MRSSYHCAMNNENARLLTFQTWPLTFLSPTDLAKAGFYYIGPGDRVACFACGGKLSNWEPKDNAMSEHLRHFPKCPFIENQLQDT
# METHOD NOTES: BIR binding assay (FRET competition), cIAP2 BIR2
# Experimental: The BIR domain binding assays are FRET based competition assays that utilize His-tagged versions of each of the BIR2 and BIR3 domains from cIAP1, cIAP2, and XIAP (each domain assayed separately) each at a custom optimal concentration and a probe, 200 nM SMAC/DIABLO peptide […] labelled with AlexaFluor647 (part #crb 1110326h, Discovery Peptides). The assay is conducted in 50 mM HEPES, […], 1 mM CHAPS, 5% Glycerol, 1 mM DTT, in dI water with a final pH of 7.4 and final volume of 20 uL. […]
pIC50: −log10 of the molar value.

MOLECULAR STRING	pIC50
C[C@@H]1CN(CC(=O)N2CC(C)(C)c3[nH]c(=O)c(Cc4ccc(F)cc4)cc32)[C@@H](CN2CCC[C@H](NC(=O)CCCCCCCCCCCCC(=O)N[C@H]3CCCN(C[C@H]4CN[C@H](C)CN4CC(=O)N4CC(C)(C)c5[nH]c(=O)c(Cc6ccc(F)cc6)cc54)C3)C2)CN1	4.29 to 5.00

Q: Reported pIC50 for cIAP2-BIR2 (Homo sapiens (Human), UniProt Q13489), given C[C@@H]1CN(CC(=O)N2CC(C)(C)c3[nH]c(=O)c(Cc4ccc(F)cc4)cc32)[C@@H](CN2CCO[C@H](COc3ccccc3-c3ccccc3OC[C@@H]3CN(C[C@H]4CN[C@H](C)CN4CC(=O)N4CC(C)(C)c5[nH]c(=O)c(Cc6ccc(F)cc6)cc54)CCO3)C2)CN1 ?
A: 5.00 to 5.50

Q: Quick one: C[C@@H]1CN(CC(=O)N2CC(C)(C)c3[nH]c(=O)c(Oc4ccc(F)cc4)cc32)[C@@H](CN2CCO[C@H](C(=O)NCc3ccc(CNC(=O)[C@@H]4CN(C[C@H]5CN[C@H](C)CN5CC(=O)N5CC(C)(C)c6[nH]c(=O)c(Oc7ccc(F)cc7)cc65)CCO4)cc3)C2)CN1
A: 5.00 to 5.50

Q: Quick one: C[C@@H]1CN(CC(=O)N2CC(C)(C)c3[nH]c(=O)c(Cc4ccc(F)cc4)cc32)[C@@H](CN2CCO[C@H](C(=O)N(C)CCCCCCN(C)C(=O)[C@@H]3CN(C[C@H]4CN[C@H](C)CN4CC(=O)N4CC(C)(C)c5[nH]c(=O)c(Cc6ccc(F)cc6)cc54)CCO3)C2)CN1
A: 5.50 to 6.00

Q: Quick one: C[C@@H]1CN(CC(=O)N2CC(C)(C)c3[nH]c(=O)c(Cc4ccc(F)cc4)cc32)[C@@H](CN2CCO[C@H](COc3ccc(C#N)c(OC[C@@H]4CN(C[C@H]5CN[C@H](C)CN5CC(=O)N5CC(C)(C)c6[nH]c(=O)c(Cc7ccc(F)cc7)cc65)CCO4)c3)C2)CN1
A: 5.50 to 6.00

Q: Quick one: C[C@@H]1CN(CC(=O)N2CC(C)(C)c3[nH]c(=O)c(Cc4ccc(Cl)cc4Cl)cc32)[C@@H](CN2CCO[C@H](C(=O)NCc3ccc(CNC(=O)[C@@H]4CN(C[C@H]5CN[C@H](C)CN5CC(=O)N5CC(C)(C)c6[nH]c(=O)c(Cc7ccc(Cl)cc7Cl)cc65)CCO4)cc3)C2)CN1
A: 5.00 to 5.50

Q: Quick one: Cc1cc(Cl)ccc1Cc1cc2c([nH]c1=O)C(C)(C)CN2C(=O)CN1C[C@@H](C)NC[C@@H]1CN1CCO[C@H](C(=O)NCc2ccc(CNC(=O)[C@@H]3CN(C[C@H]4CN[C@H](C)CN4CC(=O)N4CC(C)(C)c5[nH]c(=O)c(Cc6ccc(Cl)cc6C)cc54)CCO3)cc2)C1
A: 6.00 to 7.65
